- tgt: T1, human FGFR3 isoform IIIc (human, UniProt P22607 23-375, limits assumed)
- T1 construct: also called hFGFR3IIIc; FGFR3 IIIc
- T1 sequence: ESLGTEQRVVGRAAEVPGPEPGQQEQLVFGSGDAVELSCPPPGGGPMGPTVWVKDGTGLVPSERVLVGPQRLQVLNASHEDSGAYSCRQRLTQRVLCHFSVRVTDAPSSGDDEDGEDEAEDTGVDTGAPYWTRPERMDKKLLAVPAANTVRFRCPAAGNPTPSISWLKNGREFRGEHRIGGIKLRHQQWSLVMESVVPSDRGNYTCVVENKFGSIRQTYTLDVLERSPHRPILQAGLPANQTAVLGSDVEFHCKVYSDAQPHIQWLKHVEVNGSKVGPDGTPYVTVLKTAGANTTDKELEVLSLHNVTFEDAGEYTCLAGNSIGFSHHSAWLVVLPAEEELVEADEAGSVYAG
- measurement.protocol: reactivity grade (Table 2); method not given
metric.name: binding result

Ask | What value of measured binding result is listed for KE42 (antibody, V domains shown, Mouse monoclonal antibody from a hybridoma; also called anti-FGFR3 antibody KE42) VH: EVQLQQSGPELVKPGASVKMSCKASGYTFTDYNMHWVKQSHGKSLQWIGYINPNNGGTNYNQNFKDKATLTVNKSSTTAYMELRSLTSEDSAVYYCARERDYDGSMDFWGQGTSVTVSS VL: DIQMTQSPSSLSASLGGKVTITCKASQDINKFIAWYQHKPGKGPRLLIHYTSTLQPGIPSRFSGSGSGRDYSFSISNLEPEDIATYFCLQYDNLLWTFGGGTKLEIK ?
Reply | binds

Ask | What value of measured binding result is listed for KE58 (antibody, V domains shown, Mouse monoclonal antibody from a hybridoma; also called anti-FGFR3 antibody KE58) VH: EVQLQQSGPDLVKPGASVKISCKASGYTVTDYYMNWVKQSHGKSLEWIGDINPNNGVTTYNQKFKDKATLTVDKSSSTAYMELRSLTSEDSAVYYCAREEDFDGFDYWGQGTTLTVSS VL: DIVMTQSHKFMSTSVGDRVSITCKASQDVSTGVAWYQQKPGQSPQLLIYWASTRHTGVPDRFTGSGSGTDYILTIRSVQAEDLALYYCQQHYSTPLTFGAGTKLELK ?
Reply | binds

Ask | What value of measured binding result is listed for KE94 (antibody, V domains shown, Mouse monoclonal antibody from a hybridoma; also called anti-FGFR3 antibody KE94) VH: QVQLQQSGAELVRPGASVTLSCKASGSTFTDFEIHWVKQTPVHGLEWIGAIDPETGGTAYNQKFKGKAILTAVKSSSTAYMGLRSLTSEDSAVYYCTRNYDGYSRTMDYWGQGTSVTVSS VL: NIMMTQSPSSLAVSAGEKVTMSCKSSQSVLYSSNQKNYLAWYQQKPGQSPKLLIYWASTRESGVPDRFTGSGSGTDFSLSISSVQTEDLAVYYCHQYLSSYTFGGGTRLEMK ?
Reply | binds
